- target.under.test: Serine/threonine-protein kinase Sgk2 (Homo sapiens)
- condition.context: at 1 µM
- Description: GSK_PKIS: SGK2 mean inhibition at 1 uM [Nanosyn]
property.label: inhibition (%)
Just the number in %, nothing appended.

# annotated cases, reported inhibition shown
[[record]]
compound_structure = "COc1cc2ncnc(Nc3ccc4c(cnn4Cc4ccccc4)c3)c2cc1OC"
target_under_test = "Serine/threonine-protein kinase Sgk2 (Homo sapiens)"
property_label = "inhibition"
measured_number = -1.13

[[record]]
compound_structure = "COc1cc(Nc2nccc(-c3cnn4ncccc34)n2)cc(OC)c1"
target_under_test = "Serine/threonine-protein kinase Sgk2 (Homo sapiens)"
property_label = "inhibition"
measured_number = -0.04

[[record]]
compound_structure = "O=C1Nc2ccccc2/C1=C/Nc1ccc2[nH]c(=O)[nH]c2c1"
target_under_test = "Serine/threonine-protein kinase Sgk2 (Homo sapiens)"
property_label = "inhibition"
measured_number = 13.4

[[record]]
compound_structure = "COC(=O)c1cncc(/C=C/c2c(C)cc(O)cc2C)c1"
target_under_test = "Serine/threonine-protein kinase Sgk2 (Homo sapiens)"
property_label = "inhibition"
measured_number = 2.28

[[record]]
compound_structure = "NC(=O)c1cccc(Nc2nccc(Nc3cccc(F)c3)n2)c1"
target_under_test = "Serine/threonine-protein kinase Sgk2 (Homo sapiens)"
property_label = "inhibition"
measured_number = 3.3


API: value(readout=inhibition, system=Serine/threonine-protein kinase Sgk2 (Homo sapiens)) for record COc1cccc(-n2ncc3c(N/N=C/c4ccc(S(C)(=O)=O)cc4)ncnc32)c1
4.33

Query inhibition on Serine/threonine-protein kinase Sgk2 (Homo sapiens) for CCn1c(-c2nonc2N)nc2ccc(F)cc21
7.92

Param readout= inhibition; system= Serine/threonine-protein kinase Sgk2 (Homo sapiens); entry= NS(=O)(=O)c1ccc(Nc2cc(-c3cccc(O)c3)n[nH]2)cc1 ; returns value.
1.36

* * *

- target.under.test: Serine/threonine-protein kinase Sgk2 (Homo sapiens)
- condition.context: at 0.1 µM
# inhibition per record follows

Example results:
[[record]]
compound_structure = "c1ccc(Cc2nc3ccc(Nc4ncnc5ccccc45)cc3[nH]2)cc1"
result = "1.59%"

[[record]]
compound_structure = "[O-][S+]1CCN(Cc2ccc(-c3ccc4ncnc(Nc5ccc(OCc6ccccc6)c(Cl)c5)c4c3)o2)CC1"
result = "-2.36%"

[[record]]
compound_structure = "OCc1ccc(-c2nc(-c3ccccn3)c(-c3ccc4c(c3)OCO4)[nH]2)cc1"
result = "1.37%"

[[record]]
compound_structure = "COc1cccc(-n2ncc3c(N/N=C/c4ccc(C)cc4)ncnc32)c1"
result = "1.23%"


Here is another compound to look at.
I have this compound here, Cc1cc(-c2ccccn2)cc(C)c1/C=C/c1cncc(-c2nn[nH]n2)c1 , and I need its recorded inhibition.
3.28%

* * *

- target.under.test: 5'-AMP-activated protein kinase catalytic subunit alpha-1 (Homo sapiens) (UniProt Q13131);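 further: mean percent inhibition of the AMPK A1B1G1 complex (alpha1 beta1 gamma1) in the GSK PKIS kinase inhibitor screen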
- Sequence (Q13131 whole entry, looked up): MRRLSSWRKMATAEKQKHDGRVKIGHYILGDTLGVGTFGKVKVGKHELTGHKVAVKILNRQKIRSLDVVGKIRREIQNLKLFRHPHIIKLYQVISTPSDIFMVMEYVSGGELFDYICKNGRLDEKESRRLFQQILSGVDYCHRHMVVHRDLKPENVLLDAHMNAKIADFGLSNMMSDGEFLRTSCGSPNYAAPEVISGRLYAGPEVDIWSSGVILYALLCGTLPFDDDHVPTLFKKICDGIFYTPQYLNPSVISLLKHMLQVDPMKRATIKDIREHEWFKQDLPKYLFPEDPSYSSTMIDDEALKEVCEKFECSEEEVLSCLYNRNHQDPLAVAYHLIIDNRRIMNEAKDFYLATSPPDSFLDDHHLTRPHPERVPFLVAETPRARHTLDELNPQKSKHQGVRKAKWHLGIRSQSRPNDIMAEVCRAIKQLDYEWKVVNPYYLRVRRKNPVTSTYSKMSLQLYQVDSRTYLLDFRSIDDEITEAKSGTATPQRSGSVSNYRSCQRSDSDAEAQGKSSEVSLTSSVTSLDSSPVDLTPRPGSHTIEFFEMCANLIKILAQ
- condition.context: at 1 µM
property.label: inhibition
Value and unit, in that order.

Consider the following illustrative entries.
[[record]]
compound = "O=C1Nc2ccc(-c3cccnc3)cc2C1=Cc1cc(Br)c(O)c(Br)c1"
target_under_test = "5'-AMP-activated protein kinase catalytic subunit alpha-1 (Homo sapiens) (UniProt Q13131)"
property_label = "inhibition"
result = "3.3%"

[[record]]
compound = "NS(=O)(=O)c1cccc(-c2cc3ccncc3cc2OCc2ccccc2)c1"
target_under_test = "5'-AMP-activated protein kinase catalytic subunit alpha-1 (Homo sapiens) (UniProt Q13131)"
property_label = "inhibition"
result = "5.8%"


GET /values?readout=inhibition&item= COC(=O)Nc1nc2cc(Oc3ccc(NC(=O)Nc4cccc(Br)c4)cc3)ccc2[nH]1
2.58%

Fill in: inhibition of C[C@@H](Oc1cc(-n2cnc3ccc(OCC4CCN(C)CC4)cc32)sc1C(N)=O)c1ccccc1C(F)(F)F is ___
32.6%

For the compound COc1cccc(-n2nc(C)c3c(N/N=C(\C)c4ccncc4)ncnc32)c1 , what inhibition is on record?
0.55%

Sample Cc1ccc(Nc2ccnc(Nc3cccc(C(N)=O)c3)n2)cc1O — what was its inhibition?
6.79%

What value of inhibition has been reported for the following compound? N#Cc1cccc(Nc2nccc(-c3cnn4ncccc34)n2)c1
10.4%

Entry under review: FC(F)(F)c1ccc(-c2nn3ncccc3c2-c2ccnc(Nc3ccc4c(c3)OCCO4)n2)cc1 . Reported inhibition?
4.07%

Please give the measured inhibition for this compound: Nc1ccc(C#Cc2cncnc2Nc2ccc(OCc3cccc(F)c3)c(Cl)c2)cc1
2.87%

If you can, please state the reported inhibition value of CN1CCN(C(=O)c2ccc(NC(=O)Nc3ccc(N(C)c4ccnc(Nc5ccc(CS(C)(=O)=O)cc5)n4)cc3)cc2)CC1 .
5.52%

Fill in the blank: the reported inhibition of Cc1ccc2c(c1)/C(=N/Nc1ccc(S(N)(=O)=O)cc1)C(=O)N2 is ____.
6.53%

Fill blank: measured inhibition of the compound Cc1cc(Cl)cc2c1NC(=O)C2=NNc1ccc(S(N)(=O)=O)cc1 is ____.
4.05%

inhibition lookup needed for CCCN1CCCC(c2ccc(Nc3nc(Nc4cc(F)ccc4C(N)=O)c4cc[nH]c4n3)c(OC)c2)C1 (configuration not stated) , thanks.
20.3%

Would you kindly share the measured inhibition for Cc1cc(-c2ccccn2)cc(C)c1/C=C/c1cncc(-c2nn[nH]n2)c1 ?
3.53%

Reported inhibition for Nc1nccc(-c2c(-c3ccc(F)cc3)ncn2CCCN2CCOCC2)n1 : what is it?
3.19%

May I ask what inhibition has been recorded for COc1cccc(-n2ncc3c(N/N=C/c4ccc(S(C)(=O)=O)cc4)ncnc32)c1 ?
2%

Given the entry Cc1ccc2c(-c3ccnc(Nc4cccc(C(F)(F)F)c4)n3)c(-c3ccccc3)nn2n1 , report its measured inhibition.
2.66%

* * *

- target.under.test: Cyclin-dependent kinase 2 (Homo sapiens)
- condition.context: at 1 µM
property.label: inhibition (%)
Provide the reading as a plain figure in %.

Field: inhibition (Cyclin-dependent kinase 2 (Homo sapiens)). Entry: COC(=O)c1ccc2c(c1)C(=Cc1cc(Br)c(O)c(Br)c1)C(=O)N2
7.32

Give recorded inhibition with Cyclin-dependent kinase 2 (Homo sapiens) for the following compound: Cc1nc(-c2ccccc2)n2nc(NCCCN3CCOCC3)ncc12
2.48

Cyclin-dependent kinase 2 (Homo sapiens) / inhibition / CC(C)c1ccc2c(c1)NC(=O)/C2=N/Nc1ccc(S(N)(=O)=O)cc1 : value?;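 further: mean inhibition of the CDK2–cyclin A kinase complex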
28.9

Hello, I am looking for reported inhibition with Cyclin-dependent kinase 2 (Homo sapiens) for Cc1ccc(Nc2ccnc(Nc3cccc(C(N)=O)c3)n2)cc1O . Could you help?
16.1

* * *

- target.under.test: Serine/threonine-protein kinase 4 (Homo sapiens) (UniProt Q13043);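 further: mean inhibition of MST1, reported as part of the GSK PKIS dataset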
- Sequence (Q13043 whole entry): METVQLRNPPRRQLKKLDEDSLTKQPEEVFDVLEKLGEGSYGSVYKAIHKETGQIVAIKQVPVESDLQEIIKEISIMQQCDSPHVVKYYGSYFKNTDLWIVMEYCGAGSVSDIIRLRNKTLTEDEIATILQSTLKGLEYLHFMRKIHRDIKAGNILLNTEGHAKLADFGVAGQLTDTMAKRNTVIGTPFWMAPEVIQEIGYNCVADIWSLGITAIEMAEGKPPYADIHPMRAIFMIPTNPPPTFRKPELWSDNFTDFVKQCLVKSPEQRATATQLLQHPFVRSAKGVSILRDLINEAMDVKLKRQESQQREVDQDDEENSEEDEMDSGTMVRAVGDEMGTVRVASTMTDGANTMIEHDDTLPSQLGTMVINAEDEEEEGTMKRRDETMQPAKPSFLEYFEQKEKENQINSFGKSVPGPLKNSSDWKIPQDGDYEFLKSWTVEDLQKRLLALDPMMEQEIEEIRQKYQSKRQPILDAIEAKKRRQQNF
- condition.context: at 0.1 µM
property.label: inhibition (%)
Provide the reading as a plain figure in %.

Study these solved cases before continuing.
[[record]]
molecule = "CCS(=O)(=O)c1ccc(OC)c(Nc2ncc(-c3cccc(OC)c3)o2)c1"
property_label = "inhibition"
measured_number = 6.63

[[record]]
molecule = "C[C@@H](Oc1cc(-n2cnc3ccc(OC[C@@H](O)CO)cc32)sc1C(N)=O)c1ccccc1Cl"
property_label = "inhibition"
measured_number = 3.22

[[record]]
molecule = "COc1cccc(-n2nc(C)c3c(N/N=C(\\C)c4ccncc4)ncnc32)c1"
property_label = "inhibition"
measured_number = 1.29


Requested field: inhibition. Item: COC(=O)Nc1nc2cc(Oc3ccc(NC(=O)Nc4cccc(Br)c4)cc3)ccc2[nH]1
3.52

What value of inhibition has been recorded for this entry: N#Cc1cccc(Nc2nccc(-c3cnn4ncccc34)n2)c1
8.96

What measured inhibition goes with CCCN1CCCC(c2ccc(Nc3nc(Nc4cc(F)ccc4C(N)=O)c4cc[nH]c4n3)c(OC)c2)C1 (stereo not given) ?
10.2

Record request: inhibition value, item CN(C)C(=O)O[C@H]1CN[C@H](C#Cc2cc3ncnc(Nc4ccc(OCc5cccc(F)c5)c(Cl)c4)c3s2)C1
2.1

Could you tell me which inhibition is on file for NC(=O)c1sc(-n2cnc3ccccc32)cc1OCc1ccccc1Br ?
1.82

Value lookup for inhibition; key = Oc1cccc(-c2nc(-c3ccccc3)[nH]c2-c2ccncc2)c1
5.39

* * *

- target.under.test: Calcium/calmodulin-dependent protein kinase type IV (Homo sapiens)
- Sequence (whole entry): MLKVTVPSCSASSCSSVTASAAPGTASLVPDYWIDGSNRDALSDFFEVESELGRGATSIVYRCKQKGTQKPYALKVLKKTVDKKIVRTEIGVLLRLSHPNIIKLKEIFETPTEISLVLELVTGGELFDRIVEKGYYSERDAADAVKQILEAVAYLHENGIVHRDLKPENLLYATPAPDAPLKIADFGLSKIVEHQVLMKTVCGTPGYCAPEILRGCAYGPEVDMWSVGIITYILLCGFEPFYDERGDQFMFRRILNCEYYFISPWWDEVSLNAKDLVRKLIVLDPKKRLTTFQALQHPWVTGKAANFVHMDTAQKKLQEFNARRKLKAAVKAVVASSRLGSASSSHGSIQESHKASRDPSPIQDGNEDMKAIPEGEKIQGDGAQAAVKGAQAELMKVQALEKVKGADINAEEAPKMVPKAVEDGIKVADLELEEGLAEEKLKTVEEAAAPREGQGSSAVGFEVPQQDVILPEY
- condition.context: at 1 µM
inhibition overview
Hi! Could you send only the number? It should be in %, unit omitted.

In the examples that follow, each entry is paired with its recorded inhibition.
[[record]]
compound_structure = "Cc1ccc2c(-c3ccnc(Nc4ccc5c(c4)OCCO5)n3)c(-c3ccc(C(F)(F)F)cc3)nn2n1"
measured_number = 0.11

[[record]]
compound_structure = "CN(C)C(=O)O[C@H]1CN[C@H](C#Cc2cc3ncnc(Nc4ccc(OCc5cccc(F)c5)c(Cl)c4)c3s2)C1"
measured_number = 0.23

[[record]]
compound_structure = "OCc1ccc(-c2nc(-c3ccccn3)c(-c3ccc4c(c3)OCO4)[nH]2)cc1"
measured_number = -0.32

[[record]]
compound_structure = "CN(C)C(=O)O[C@@H]1CN[C@@H](C#Cc2cc3ncnc(Nc4ccc(OCc5cccc(F)c5)c(Cl)c4)c3s2)C1"
measured_number = 0.99

[[record]]
compound_structure = "COc1cc(/C=N/Nc2ncnc3c2cnn3C(C)C)ccc1O"
measured_number = -1.97


Here is the next item to consider.
# value lookup — system Calcium/calmodulin-dependent protein kinase type IV (Homo sapiens), readout inhibition, item c1ccc(Nc2ncc(-c3ccccc3)o2)cc1;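 further: each value is the mean of the measured CAMK4 inhibition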
3.97
